Data provenance is paper PMC12040169.

assay: in vitro; details: human, hela cells, % viability
measured_property: viability at 28.5 h, 10 µM (%)
Numeric answer only, unit % assumed.

Some solved entries appear below for comparison.
COc1ccc(C(=O)[C@@H]2CCCC[C@H]2N)cc1 [CBK023040C]: 91.6
COc1ccc([C@@]23CC[C@@H](NC(=O)c4ccc(-c5ccccc5)cc4)CC2N(C)CC3)cc1OC (stereo partly drawn) [CBK074973T]: 89.6

// moving on: another record for viability at 28.5 h, 10 µM
What viability at 28.5 h, 10 µM value was documented for this molecule, O=C(c1nc2ncccn2n1)N1CCc2ccccc2C1 ?
88

---

experiment: in vitro; settings: human, hela cells, % viability
measured_property: viability at 28.5 h, 10 µM (%)
Numeric answer only, unit % assumed.

What viability at 28.5 h, 10 µM value was documented for this compound, CCC1=NN2C(=N)/C(=C/c3ccc(OC)cc3)C(=O)N=C2S1 [CBK101905] ?
95.6

What viability at 28.5 h, 10 µM value was documented for this compound, CN1CCN(c2nc(NS(=O)(=O)c3ccc(OC(F)(F)F)cc3)cc3ccccc23)CC1 [CBK002978C] ?
87.7

What viability at 28.5 h, 10 µM value was documented for this compound, CC(C)c1nc(NCCc2nnc3n2CCCC3)nc(N(C)C)n1 [CBK306426] ?
112

What viability at 28.5 h, 10 µM value was documented for this compound, O=S(=O)(/C=C/c1ccccc1)Nc1cccc2cc[nH]c12 [CBK155788] ?
82.7

What viability at 28.5 h, 10 µM value was documented for this compound, C=CCOc1ccc(-c2nnn(CC(=O)O)n2)cc1 [CBK269772] ?
87.8

What viability at 28.5 h, 10 µM value was documented for this compound, CCOC(=O)C(Cc1ccccc1)C(=O)Nc1ccc(Cl)cc1 (stereo not shown) [CBK261463] ?
84.2

What viability at 28.5 h, 10 µM value was documented for this compound, COc1ccc(C(C)(C)C)cc1NC(=O)c1ccncc1 [CBK288248] ?
92

---

assay: in vitro; conditions: human, hela cells, % viability
measured_property: viability at 28.5 h, 10 µM (%)
Numeric answer only, unit % assumed.

CCCC(=O)N1CCC[C@@H](Cn2nc(-c3cccs3)ccc2=O)C1: 88.5
OCCOCCNc1ncnc2sc(-c3ccccc3)cc12: 76
Cc1[nH]c(=S)[nH]c(=O)c1Cc1cccc2ccccc12: 82.4
COc1ccnc(N2CCN(C(=O)C3(C#N)CCCCC3)CC2)n1: 92.2
CC(=O)Nc1cccc(CN(C)C(CCO)c2ccccc2)c1 (stereo not drawn): 95.8
Cc1cn(CC(=O)N2CCC3(CCCNC3)C2)c(=O)[nH]c1=O (stereo not drawn) [CBK153231C]: 95.9
CS(=O)(=O)c1ccc(-c2ccc3c(n2)CCN(C2CCN(C(=O)OCc4ccccc4)CC2)C3)cc1: 81.8
CCC(C)(C)c1ccc(S(=O)(=O)N2CCCN(Cc3c(-c4ccccc4)noc3C)CC2)cc1: 92.8

What viability at 28.5 h, 10 µM value was documented for this molecule, O=C(NCc1ccccn1)c1cncc(Br)c1 ?
88.1

What viability at 28.5 h, 10 µM value was documented for this molecule, CNC(=O)C1(Cc2ccc(-c3cccc(C)c3)cc2)CCN(C(=O)CC(C)C)CC1 ?
116

What viability at 28.5 h, 10 µM value was documented for this molecule, C/C(=N\N)c1ccc2[nH]c3c(c2c1)CCC/C3=N\N ?
81.2

What viability at 28.5 h, 10 µM value was documented for this molecule, NC(=O)C1CCN(C(=O)Cc2csc(COc3ccc(Cl)cc3)n2)CC1 ?
81.9

What viability at 28.5 h, 10 µM value was documented for this molecule, COc1ccc(-c2ccccc2NC(=O)c2cc(-n3cccn3)ccc2Cl)cc1 ?
91.3

What viability at 28.5 h, 10 µM value was documented for this molecule, O=C(Nc1ccc(S(=O)(=O)Nc2cncs2)cc1)c1ccc(-c2cccc(C(F)(F)F)c2)o1 ?
89

What viability at 28.5 h, 10 µM value was documented for this molecule, Nc1ncnc2c1nc1n2[C@H]2C[C@@H](O)[C@H](O2)[C@H]1O ?
96.2

---

experiment: in vitro; settings: human, hela cells, % viability
measured_property: viability at 28.5 h, 10 µM (%)
Numeric answer only, unit % assumed.

Some solved entries appear below for comparison.
Cc1ccc(NC(=O)CSc2nnc(C(O)c3ccccc3)n2-c2ccccc2)c(Br)c1 (stereo not shown): 89.8
CCC(C)NC(=O)Cn1c(C2CCNCC2)cc2cccnc21 (stereo not shown): 103
CCNc1ncnc2c1oc1ccccc12: 89.8
CCCn1nc(C)c(-c2cncn2CCCN2CCCCC2)c1C: 100

What viability at 28.5 h, 10 µM value was documented for this compound, CC(C)C(=O)Nc1c(-c2ccsc2)cnc2ncccc12 ?
88.7

What viability at 28.5 h, 10 µM value was documented for this compound, O=C(Nc1cccnc1)N1CCN(CCc2ccccc2)CC1 ?
95.4

What viability at 28.5 h, 10 µM value was documented for this compound, Cc1cc(C)n2ncc(C(=O)NCC(c3cccs3)N3CCCC3)c2n1 (stereo not shown) ?
85.3

What viability at 28.5 h, 10 µM value was documented for this compound, Cc1ccnc(SCCn2c(N(C)Cc3ccccc3)nc3c2c(=O)n(C)c(=O)n3C)n1 ?
98.9

What viability at 28.5 h, 10 µM value was documented for this compound, S=C(NCc1ccc(Cl)c(Cl)c1)Nc1ccncc1 ?
84.9

What viability at 28.5 h, 10 µM value was documented for this compound, Cc1cc(C)n(CCCC(=O)N2CCc3ncc(Cl)cc3C2)n1 ?
103

What viability at 28.5 h, 10 µM value was documented for this compound, C=CCN1C(=O)CC2(C1=O)C(=O)N(Cc1nc(-c3ccc(Cl)cc3)no1)c1ccc(OC)cc12 (stereo not shown) ?
97.1

What viability at 28.5 h, 10 µM value was documented for this compound, O=C(O)CCc1ccc(-c2ccc(F)cc2)n1NC(=O)c1ccco1 ?
90.7

What viability at 28.5 h, 10 µM value was documented for this compound, Cc1ccc(NC(=O)c2nccc3ccccc23)c(C)n1 ?
93.2

---

// reported viability at 28.5 h, 10 µM per item
assay: in vitro; conditions: human, hela cells, % viability
Numeric answer only, unit % assumed.

c1ccc2c(CCN3CCC(Oc4nccnc4OCCN4CCOCC4)CC3)c[nH]c2c1 [CBK082939T]: 88.6
CCc1nnc(NS(=O)(=O)c2ccc(N/C=C\C(=O)c3ccc4ccccc4c3)cc2)s1: 91.4
Cc1cc(C)n(C)c(=O)c1C(=O)NCCCc1ccc(Cl)cc1: 88.2

What viability at 28.5 h, 10 µM value was documented for this compound, COc1ccccc1-c1cnc2[nH]c(=O)n(CC(C)(C)CO)c2n1 ?
90.2

---

test: in vitro; conditions: human, hela cells, % viability
measured_property: viability at 28.5 h, 10 µM (%)
Numeric answer only, unit % assumed.

Cc1cc(NC(=O)c2ccc(S(=O)(=O)N(C)C)cc2)nc2c1c(=O)oc1ccccc12: 104

What viability at 28.5 h, 10 µM value was documented for this compound, COc1ccccc1/C=C/C1=NN(c2ccc(F)cc2)C(c2ccccc2OC)C1 (stereo not shown) ?
81.1

What viability at 28.5 h, 10 µM value was documented for this compound, COc1cccc(NC(=O)CN2CCN(c3nc4ccc([N+](=O)[O-])cc4s3)CC2)c1 ?
93.7

What viability at 28.5 h, 10 µM value was documented for this compound, COc1cc(/C=N/NC(N)=O)ccc1OC(=O)c1sc2ccccc2c1Cl ?
85

What viability at 28.5 h, 10 µM value was documented for this compound, O=C(CN1C(=O)N2CCCN=C2c2ccccc21)NC1CCCC1 ?
82.6

---

// reported viability at 28.5 h, 10 µM per item
test: in vitro; settings: human, hela cells, % viability
Numeric answer only, unit % assumed.

O=C(CN1C(=O)C2CCCCC2C1=O)Nc1ccccc1C(=O)O (stereo not shown) [CBK264130]: 91.5

What viability at 28.5 h, 10 µM value was documented for this molecule, Oc1cc(C(F)(F)F)nc(NCc2ccc3ccccc3c2)n1 [CBK003459] ?
92.2

What viability at 28.5 h, 10 µM value was documented for this molecule, CC(=O)c1ccc(OCCn2c(SCC(=O)O)nc3ccccc32)cc1 [CBK287115] ?
88.8

What viability at 28.5 h, 10 µM value was documented for this molecule, COc1ccc(CNC(=O)Cn2nc3c(SCc4ccc(Cl)cc4)nccn3c2=O)cc1 [CBK300541] ?
90.5

---

assay: in vitro; conditions: human, hela cells, % viability
measured_property: viability at 28.5 h, 10 µM (%)
Numeric answer only, unit % assumed.

Some solved entries appear below for comparison.
N#Cc1c(C(F)(F)F)cc(-c2ccco2)nc1SCc1ccccn1: 88.5
Cn1cc(C(=O)Nc2ccccc2N2CCNCC2)c2ccccc21 [CBK034141T]: 92.2

// moving on: another record for viability at 28.5 h, 10 µM
What viability at 28.5 h, 10 µM value was documented for this compound, O=[N+]([O-])c1ccc2c(/C=N/c3ccc(-c4nc5ccccc5s4)cc3)c(O)ccc2c1 ?
92.3
